- System: XBP1(u)-luciferase splicing reporter in HepG2 hepatoma cells
- Protocol: HepG2 XBP1 reporter assay (XBP1(u)-Luc)
- Format: cell-based
- Condition description: Homo sapiens, 6 hours after compound addition, Table 4
For each record, write down the corresponding IC50.

// recorded IC50 for Cc1cc(N2CCCOCC2c2cc3c(cc2Cl)N(C)CC3)nc(N)n1 (stereo not shown) : < 0.6 µM

// recorded IC50 for "COc1cc(Cl)c([C@H]2COCCCN2c2cc(C)nc(N)n2)cc1OC(C)C" : 0.6 to 2 µM

// recorded IC50 for Cc1cc(N2CC(C)COCC2c2ccc(CS(C)(=O)=O)cc2Cl)nc(N)n1 (stereo not shown) : ≥ 5 µM

// recorded IC50 for "CCOC(=O)[C@H](C)Oc1cc(Cl)c([C@H]2COCCCN2c2cc(C)nc(N)n2)cc1OC" : 0.6 to 2 µM
